# System: NCIH2228 (RB mut)
# test details: Combinatorial activity in LUAD cell line NCIH2228
# Format: cell-based
# test settings: Homo sapiens, NCI-H2228, WT, single agent, read-out: (nM) s.a.
property name: IC50 (nM)
Numbers only, in nM.

QUERY: Could you share which IC50 value was measured for CC(C)n1c(C(C)(C)O)nc2c(F)cc(-c3nc(N[C@@H]4CCOC[C@H]4O)ncc3Cl)cc21 [PF-07220060] ?
RESULT: 839

* * *

# Tested on: NCIH1944
# test details: Combinatorial activity in LUAD cell line NCIH1944
# Format: cell-based
# test settings: Homo sapiens, NCI-H1944; NCIH1944, KRAS G13D; single agent; read-out: (nM) s.a.
property name: IC50 (nM)
Answers are plain numbers, in nM.

{"columns": ["chem smiles", "measured value"],
 "data": [
  ["CC(C)n1c(C(C)(C)O)nc2c(F)cc(-c3nc(N[C@@H]4CCOC[C@H]4O)ncc3Cl)cc21", 398]
]}

QUERY: Fill in: IC50 of COCc1cc(C(=O)Nc2cc([C@H]3CC[C@@H](OC(=O)NC(C)C)C3)[nH]n2)n(C)n1 is ___
RESULT: 227
